B1: SCNN1D (parent)
chain: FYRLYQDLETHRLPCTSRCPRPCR

Variants of: B1
assay.summary: protein stability index of a GFP-peptide fusion (GPS, HEK-293T) (PSI 1-6); higher = more stable;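 further: lentivirally expressed fusions sorted by FACS into six bins by GFP to DsRed ratio, PSI derived from sequencing read proportions per bin multiplied by bin number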
condition.set: c terminus: a fixed tail appended
Please provide measured protein stability index for the entries that follow.

For the variant H11P , give its measured protein stability index value.
2

For the variant S17N , give its measured protein stability index value.
2.15

For the variant C19Q , give its measured protein stability index value.
2.59

For the variant Q6M , give its measured protein stability index value.
1.91

For the variant C19F , give its measured protein stability index value.
2.65

For the variant H11N , give its measured protein stability index value.
1.93

For the variant Q6E , give its measured protein stability index value.
3.63

For the variant L4S , give its measured protein stability index value.
3.46

For the variant C15W , give its measured protein stability index value.
1.75

For the variant L8F , give its measured protein stability index value.
2.58

For the variant Q6H , give its measured protein stability index value.
1.96

For the variant R18D , give its measured protein stability index value.
1.78

For the variant L8A , give its measured protein stability index value.
2.38

For the variant C19H , give its measured protein stability index value.
1.84

For the variant Q6A , give its measured protein stability index value.
2.21

For the variant C23P , give its measured protein stability index value.
2.43

For the variant P20G , give its measured protein stability index value.
1.95

For the variant Y2R , give its measured protein stability index value.
2.58

For the variant F1L , give its measured protein stability index value.
1.54

For the variant L8R , give its measured protein stability index value.
2.22

For the variant C23H , give its measured protein stability index value.
2.17

For the variant P20I , give its measured protein stability index value.
2.22

For the variant Y2T , give its measured protein stability index value.
1.81

For the variant P14R , give its measured protein stability index value.
2.09

For the variant R21G , give its measured protein stability index value.
2.71

For the variant L13K , give its measured protein stability index value.
2.63

For the variant P22H , give its measured protein stability index value.
2.38

For the variant S17W , give its measured protein stability index value.
1.02

For the variant T16L , give its measured protein stability index value.
1.82

For the variant R12T , give its measured protein stability index value.
2.1

For the variant Y2F , give its measured protein stability index value.
2.22

For the variant D7S , give its measured protein stability index value.
1.98

For the variant Y5R , give its measured protein stability index value.
2.02

For the variant T16E , give its measured protein stability index value.
2.5

For the variant R24E , give its measured protein stability index value.
2.14

For the variant P14I , give its measured protein stability index value.
1.53

For the variant D7C , give its measured protein stability index value.
1.72

For the variant P20S , give its measured protein stability index value.
1.83

For the variant C23S , give its measured protein stability index value.
2.67

For the variant R12D , give its measured protein stability index value.
2.4

For the variant E9H , give its measured protein stability index value.
2.25

For the variant F1V , give its measured protein stability index value.
2.13

For the variant P14C , give its measured protein stability index value.
1.44

For the variant R3A , give its measured protein stability index value.
2.32

For the variant R12L , give its measured protein stability index value.
2.05

For the variant T10P , give its measured protein stability index value.
2.03

For the variant L4G , give its measured protein stability index value.
3.51

For the variant P14V , give its measured protein stability index value.
1.47

For the variant T16G , give its measured protein stability index value.
1.93

For the variant L13C , give its measured protein stability index value.
1.85

For the variant L4D , give its measured protein stability index value.
2.69

For the variant R24F , give its measured protein stability index value.
1.75

For the variant Y5Q , give its measured protein stability index value.
2.81

For the variant R21Y , give its measured protein stability index value.
2.71

For the variant T10I , give its measured protein stability index value.
2.44

For the variant C15D , give its measured protein stability index value.
2.24

For the variant D7R , give its measured protein stability index value.
2.89

For the variant P22E , give its measured protein stability index value.
2.27

For the variant C19N , give its measured protein stability index value.
3.89

For the variant D7F , give its measured protein stability index value.
2.22

For the variant Y5C , give its measured protein stability index value.
2.13

For the variant E9F , give its measured protein stability index value.
1.46

For the variant Y5M , give its measured protein stability index value.
2.29

For the variant C23N , give its measured protein stability index value.
1.91

For the variant R24K , give its measured protein stability index value.
2.65

For the variant H11V , give its measured protein stability index value.
1.98

For the variant F1P , give its measured protein stability index value.
3.59

For the variant R12Q , give its measured protein stability index value.
2.47

For the variant T10C , give its measured protein stability index value.
1.94

For the variant R18Y , give its measured protein stability index value.
1.78

For the variant R12A , give its measured protein stability index value.
3.03

For the variant T10N , give its measured protein stability index value.
2.4

For the variant E9A , give its measured protein stability index value.
2.06

For the variant C23G , give its measured protein stability index value.
2.65

For the variant D7G , give its measured protein stability index value.
2.3
